- target-entity: T1, human EphA4 (binding to human Ephrin A5) (Homo sapiens, UniProt P54764)
- T1 construct: made in house; not restated for the human SEAP-His protein
- T1 sequence (P54764 20-547): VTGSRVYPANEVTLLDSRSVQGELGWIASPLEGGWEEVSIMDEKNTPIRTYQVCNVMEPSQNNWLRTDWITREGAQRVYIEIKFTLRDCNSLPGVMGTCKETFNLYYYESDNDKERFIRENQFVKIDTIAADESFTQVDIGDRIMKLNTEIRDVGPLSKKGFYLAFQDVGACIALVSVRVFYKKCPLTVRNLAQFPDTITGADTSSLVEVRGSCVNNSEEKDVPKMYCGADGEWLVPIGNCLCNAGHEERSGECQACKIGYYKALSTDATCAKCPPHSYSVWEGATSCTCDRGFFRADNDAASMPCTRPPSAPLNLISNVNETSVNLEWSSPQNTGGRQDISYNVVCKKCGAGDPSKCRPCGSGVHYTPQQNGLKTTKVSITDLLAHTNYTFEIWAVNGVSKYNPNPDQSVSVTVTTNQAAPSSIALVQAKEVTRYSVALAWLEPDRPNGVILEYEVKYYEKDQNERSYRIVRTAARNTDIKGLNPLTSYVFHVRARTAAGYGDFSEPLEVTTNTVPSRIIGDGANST
- assay-protocol: Human EphA4-human ligand binding inhibition ELISA of humanized antibodies (biotinylated Ephrin A5-Fc)
- experimental-parameters: biotinylated human Ephrin A5-Fc 0.7 nM
metric-name: pIC50
Quick note: pIC50 means taking -log10 of the concentration in moles per liter.

Before answering, review these 3 worked examples.
- molecule: "91 (antibody, V domains shown, constant regions without entry; synthetic humanized antibody light chain variable region sequence; synthetic humanized antibody heavy chain variable region sequence) VL: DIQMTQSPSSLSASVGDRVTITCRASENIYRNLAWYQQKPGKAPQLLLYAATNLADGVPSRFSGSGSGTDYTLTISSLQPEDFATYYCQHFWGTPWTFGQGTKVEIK VH: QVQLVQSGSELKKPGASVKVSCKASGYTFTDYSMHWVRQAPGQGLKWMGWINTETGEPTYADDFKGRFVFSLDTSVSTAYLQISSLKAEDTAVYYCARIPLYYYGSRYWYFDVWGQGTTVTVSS"
  pIC50: 8.31
- molecule: "143 (antibody, V domains shown, synthetic humanized antibody heavy chain variable region sequence; synthetic humanized antibody light chain variable region sequence) VH: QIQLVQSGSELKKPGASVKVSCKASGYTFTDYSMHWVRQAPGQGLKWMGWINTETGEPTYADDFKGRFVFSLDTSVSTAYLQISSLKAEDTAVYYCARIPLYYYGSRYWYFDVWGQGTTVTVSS VL: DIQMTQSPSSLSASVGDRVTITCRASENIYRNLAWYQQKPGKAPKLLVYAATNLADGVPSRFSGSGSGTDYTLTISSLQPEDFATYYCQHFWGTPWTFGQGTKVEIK"
  pIC50: 8.28
- molecule: "71 (antibody, V domains shown, synthetic humanized antibody heavy chain variable region sequence; synthetic humanized antibody light chain variable region sequence) VH: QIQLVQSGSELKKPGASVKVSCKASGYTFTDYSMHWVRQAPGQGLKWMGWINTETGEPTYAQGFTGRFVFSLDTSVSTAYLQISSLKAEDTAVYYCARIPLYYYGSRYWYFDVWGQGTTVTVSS VL: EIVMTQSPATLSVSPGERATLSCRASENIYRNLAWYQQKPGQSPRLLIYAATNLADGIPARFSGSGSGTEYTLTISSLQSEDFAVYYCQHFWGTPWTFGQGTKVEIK"
  pIC50: 8.60

Now let's try a different one.
Which value of pIC50 has been reported for 81 (antibody, V domains shown, constant regions without entry; synthetic humanized antibody light chain variable region sequence; synthetic humanized antibody heavy chain variable region sequence) VL: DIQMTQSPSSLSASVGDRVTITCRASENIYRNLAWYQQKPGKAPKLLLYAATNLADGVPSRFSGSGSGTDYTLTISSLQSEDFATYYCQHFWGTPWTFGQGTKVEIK VH: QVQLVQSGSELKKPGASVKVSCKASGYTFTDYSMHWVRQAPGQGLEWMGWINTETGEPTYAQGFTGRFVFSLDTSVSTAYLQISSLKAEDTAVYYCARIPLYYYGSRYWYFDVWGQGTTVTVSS in the records? 8.40
